// reported log10 of Kd per item
Biological target: T1, Human CD44v6 iso4-Fc (human, UniProt P16070-4 21-606, limits assumed, chemically biotinylated in the form called Bio-CD44v6)
T1 construct: Custom ordered from ProMab, produced in HKB11 cells; The biotinylated and the plain form are kept as one molecule; also called Bio-CD44v6; bio-CD44v6
T1 sequence (P16070 other isoform, or with tags, fused parts or gaps limits assumed): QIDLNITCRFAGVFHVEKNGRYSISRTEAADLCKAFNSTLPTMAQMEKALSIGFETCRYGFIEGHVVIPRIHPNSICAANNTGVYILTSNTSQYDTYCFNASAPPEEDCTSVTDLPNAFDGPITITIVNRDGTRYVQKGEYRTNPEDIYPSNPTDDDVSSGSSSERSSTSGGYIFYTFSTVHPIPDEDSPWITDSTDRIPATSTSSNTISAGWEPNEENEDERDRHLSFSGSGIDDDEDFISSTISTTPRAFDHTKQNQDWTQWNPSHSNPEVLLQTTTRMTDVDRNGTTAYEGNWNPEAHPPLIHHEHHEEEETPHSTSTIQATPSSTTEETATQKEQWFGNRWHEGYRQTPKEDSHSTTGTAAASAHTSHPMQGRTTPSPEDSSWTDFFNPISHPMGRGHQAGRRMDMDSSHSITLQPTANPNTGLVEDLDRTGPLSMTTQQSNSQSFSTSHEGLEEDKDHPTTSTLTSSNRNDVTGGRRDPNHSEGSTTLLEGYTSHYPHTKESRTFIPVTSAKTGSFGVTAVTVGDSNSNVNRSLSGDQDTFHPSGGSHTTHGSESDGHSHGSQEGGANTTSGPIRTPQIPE
Experiment: SPR SCK, antibody immobilised, CD44v6-Fc injected; apparent KD
In our notation, the value equals log10 of Kd in nM.

# example entries with known answers
AL-MN114-465 IgG1 LALA IAHA (antibody, V domains shown, Human IgG1 LALA IAHA, kappa) VH: EVQLLESGGGLVQPGGSLRLSCAASGFSFGSYAMSWVRQAPGKGLEWVSAISAGGSSTFYADSVKGRFTISRDNSKNTLYLQMNSLRAEDTAVYYCARHYYSDSDYRSSAAMDYWGQGTLVTVSS VL: DIQMTQSPSSLSASVGDRVTITCRASQSISSYLNWYQQKPGKAPKLLIYTASSLQSGVPSRFSGSGSGTDFTLTISSLQPEDFATYYCQQDLYLLTFGQGTKLEIK    0.20
AL-MN114-444 IgG1 LALA IAHA (antibody, V domains shown, Human IgG1 LALA IAHA, kappa) VH: EVQLLESGGGLVQPGGSLRLSCAASGFTFRSFAMSWVRQAPGKGLEWVSAISGGGSSTFYADSVKGRFTISRDNSKNTLYLQMNSLRAEDTAVYYCARHYYSDSDYRSSAAMDYWGQGTLVTVSS VL: DIQMTQSPSSLSASVGDRVTITCRASQSIGSYLNWYQQKPGKAPKLLIYSASSLQSGVPSRFSGSGSGTDFTLTISSLQPEDFATYYCQQDLYLLTFGQGTKLEIK    0.00
AL-MN114-71 IgG1 LALA IAHA (antibody, V domains shown, Human IgG1 LALA IAHA, kappa) VH: EVQLLESGGGLVQPGGSLRLSCAASGFSFRSFAMSWVRQAPGKGLEWVSAISGGGSSTFYADSVKGRFTISRDNSKNTLYLQMNSLRAEDTAVYYCARHYYSDSDYRSSAAMDYWGQGTLVTVSS VL: DIQMTQSPSSLSASVGDRVTITCRASQSISSYLNWYQQKPGKAPKLLIYAASTLQSGVPSRFSGSGSGTDFTLTISSLQPEDFATYYCQQDLYLLTFGQGTKLEIK    0.04
AL-MN114-132 IgG1 LALA IAHA (antibody, V domains shown, Human IgG1 LALA IAHA, kappa) VH: EVQLLESGGGLVQPGGSLRLSCAASGFTFSSYAMSWVRQAPGKGLEWVSAISGGGSSTYYADSVKGRFTISRDNSKNTLYLQMNSLRAEDTAVYYCARHYYSDSDYRSSAAMDYWGQGTLVTVSS VL: DIQMTQSPSSLSASVGDRVTITCRASQSISSYLNWYQQKPGKAPKLLIYAASSLQSGVPSRFSGSGSGTDFTLTISSLQPEDFATYYCQQDLYLLTFGQGTKLEIK    0.18

// below: log10 of Kd requested for another binder
**Query** Item under review: AL-MN114-132 IgG1 LALA (antibody, V domains shown, item 20 iii) gives heavy 77 / light 96 without naming the format) VH: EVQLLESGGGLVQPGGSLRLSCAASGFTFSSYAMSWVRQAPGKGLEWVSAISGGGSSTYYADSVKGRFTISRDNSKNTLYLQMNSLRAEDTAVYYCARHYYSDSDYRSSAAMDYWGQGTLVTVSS VL: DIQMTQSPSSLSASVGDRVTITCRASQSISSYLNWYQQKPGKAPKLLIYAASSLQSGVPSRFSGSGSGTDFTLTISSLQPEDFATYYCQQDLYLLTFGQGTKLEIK . Reported log10 of Kd?
**Result** -1.21

Every entry's value here was drawn from patent US20250340662A1.
